The following binders are listed with their measured FIG. 30 FACS value (IC17=0, DQN0139bb=100) values.
- test_system: T1, HLA-DQ2.5/33mer gliadin peptide complex on Ba/F3 cells (human; wheat)
- T1 construct: also called Ba/F3-HLA-DQ2.5/33mer gliadin peptide; HLA-DQ2.5/gliadin peptide complex
- test_summary: FACS
A bare number is all that is needed in reply.

Read the entry DQN0271hh (antibody, human IgG1, kappa, V domains shown, also called DQN0271Lh) VH: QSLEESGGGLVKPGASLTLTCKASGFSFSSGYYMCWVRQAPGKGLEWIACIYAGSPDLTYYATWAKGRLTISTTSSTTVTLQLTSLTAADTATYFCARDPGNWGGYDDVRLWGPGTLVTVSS VL: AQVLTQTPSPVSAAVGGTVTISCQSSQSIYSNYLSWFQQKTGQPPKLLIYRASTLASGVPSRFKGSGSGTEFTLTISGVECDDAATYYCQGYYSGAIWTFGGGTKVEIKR and write its reported FIG. 30 FACS value (IC17=0, DQN0139bb=100).
106

Identify the reported FIG. 30 FACS value (IC17=0, DQN0139bb=100) for the following entry. DQN0370hh (antibody, human IgG1, kappa, V domains shown, also called DQN0370Lh) VH: QSLEESGGGLVKPGGPLTLTCTASGFSFSSAYYMCWVRQAPGKGLEWIACIYVGSGSTYYTSWAKGRFTISKVSSTTMTLQMTSLTAADTATYFCARDPLIYYYYGELNLWGPGTLVTVSS VL: AVVLTQTASPVSAPVGGTVTIKCQASEDIYSNLAWYQQKPGQRPKVLIYSASTLASGVSSRFKGSRSGTEYTLSITDLGCADAATYYCQAYYDIGGVTFGGGTKVEIKR
107

Supply measured FIG. 30 FACS value (IC17=0, DQN0139bb=100) of DQN0344xx (antibody, human IgG1, kappa, V domains shown, also called DQN0344Hx; DQN0344Lx) VH: QSLEESGGGLVKPGGTLTLTCTASGFSFSSSYWMCWVRQAPGKGLEWVACVYGGSDTTYYASWTKGRFTISKGSSTTVALQVTSLTAADTATYFCARDPLNYYYYGELNLWGPGTLVTVSS VL: AVVLTQTASPVSAAVGGTVTIRCQATENIYSGLAWYQQKPGQPPKVLIYYVSTLASGVPSRFKGSGSGTEYTLTISGVQCDDAATYYCQTYHDISNVTFGGGTKVEIKR in your reply.
106

src = patent US20230118024A1
